# TARGET OR SYSTEM: Cytochrome P450 2D6 (Homo sapiens) (UniProt P10635)
# Sequence (P10635 whole entry, looked up): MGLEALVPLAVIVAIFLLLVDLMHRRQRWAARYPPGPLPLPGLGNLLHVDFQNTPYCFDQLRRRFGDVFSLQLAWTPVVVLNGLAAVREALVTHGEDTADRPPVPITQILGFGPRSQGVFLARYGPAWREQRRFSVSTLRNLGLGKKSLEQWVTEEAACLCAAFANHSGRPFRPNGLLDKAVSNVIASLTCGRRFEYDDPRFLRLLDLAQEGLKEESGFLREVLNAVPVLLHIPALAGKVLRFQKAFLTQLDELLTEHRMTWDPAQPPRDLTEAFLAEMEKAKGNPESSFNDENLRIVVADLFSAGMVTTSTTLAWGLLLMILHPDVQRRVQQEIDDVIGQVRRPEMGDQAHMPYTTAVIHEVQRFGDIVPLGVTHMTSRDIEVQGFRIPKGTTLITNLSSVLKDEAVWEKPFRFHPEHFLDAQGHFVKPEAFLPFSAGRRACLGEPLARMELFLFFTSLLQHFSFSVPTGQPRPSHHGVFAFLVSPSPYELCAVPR
# ASSAY REMARKS: Cytochrome P450 Family 2 Subfamily D Member 6 (CYP2D6) small molecule antagonists: luciferase reporter qHTS assay (AID 1671196); also: nearly all actives have a fitted effect of over 50% in size
# STATED CONDITIONS: P450-Glo CYP2D6 enzyme assay, luciferin luminescence, 1 h; series mostly up to 115 µM
Records with an inconclusive call do not appear. Calls of active or inactive are those of the source. Calls follow the shape of the dose curve; as a rule, active = well fitted inhibition curve with a large enough effect in the repeat runs; inconclusive = weak or mixed curves; inactive = no such curve, though single readings can be large or run the other way.
In this exercise, the only acceptable responses are 1 = active, -1 = inactive

Previously resolved entries follow.
CC(C)CCOC(=O)c1ccccc1 | -1
C#CCN[C@@H]1CCc2ccccc21 | 1
CC1(C)Oc2ccc(C#N)cc2[C@@H](N2CCCC2=O)[C@@H]1O | -1
c1ccc2c(CC3=NCCN3)cccc2c1 | 1
CCCCCCCCCCCCCCCCCC#N | -1
CCC(=O)c1c(O)cc(O)cc1O | 1
CCc1occc(=O)c1O | -1
CCCC(CC)c1ccccc1 (stereo unspecified) | -1

Query: Per the assay record, what outcome was assigned to `C=C(C)[C@@H]1CC=C(C)C(=O)C1` ?
Reply: -1

Query: Another: CCCCCCCCCCCCCCC(=O)NC(CO)CCCCCCCCCCCCCC (stereo unspecified)
Reply: -1

Query: And what about the molecule `Nc1nc(-c2ccccc2)c(Br)c(=O)[nH]1` ?
Reply: -1

Query: Please do the same for `C[C@@H](O)C(=O)O` as well.
Reply: -1

Query: Then what about the molecule `COC(=O)CCCCC(=O)O` ?
Reply: -1

Query: And the next one, `CC(=O)CC(=O)OC(C)(C)C` ?
Reply: -1

Query: // same read-out, input: `CC/C(C)=N\O[Si](C)(O/N=C(\C)CC)O/N=C(\C)CC`
Reply: 1

Query: Try CC(=O)OC1CCCCC1C(C)(C)C (stereo unspecified) next.
Reply: -1

Query: Now the same for `COc1cc(OC)nc(O[C@H](C(=O)O)C(OC)(c2ccccc2)c2ccccc2)n1`
Reply: -1

---

# ASSAY REMARKS: qHTS assay to test for compound auto fluorescence at 590 nm (red) in HEK293 cell free culture (AID 720683); also: % is scaled to controls: 0 for no effect and ±100 for the full control effect
# STATED CONDITIONS: cell-free medium autofluorescence, Ex540/Em590 red; series mostly up to 91.3 µM
# Description: U.S. Tox21 Program National Center for Advancing Translational Sciences [NCATS] NIH Chemical Genomics Center [NCGC] U.S. Environmental Protection Agency [EPA] National Institutes of Environmental Health Sciences [NIEHS] National Toxicology Program [NTP] U.S. Food and Drug Administration [FDA] Tox21 Assay Overview: Compound auto fluorescence often interferes with screening of the compound library against various biological targets and signaling pathways. […] This assay includes the red fluorescence data. […]
Active and inactive are the calls of the source. The call rests on the fitted dose curve; in most records, active means well fitted curve in the direction sought with a large enough effect in the repeat runs; inconclusive means weak or mixed curves; inactive means flat fitted curve, though single readings scatter.
REPORTED METRIC: fluorescence, % of fluorescent control

Here's what some known entries look like.
CC(C)=CCC/C(C)=C/COC=O | inactive
CC(C)(C)NC[C@H](O)COc1cccc2c1CCCC2=O | -0.286% [at 18.6 µM] (inactive)
OC[C@@H](O)C(O)[C@@H](O)CO (stereo partly specified) | inactive
CC(=O)OC1CCCCC1C(C)(C)C (stereo unspecified) | inactive
CC1(C)[C@H]2CC[C@](C)(C2)[C@H]1O | inactive

Pending molecule:
Query: For `O=C(O)CONC(=O)c1ccccc1` , what is its reported fluorescence, % of fluorescent control?
Reply: inactive
